Hey, just so you know, these numbers are from patent US20140031368A1.

test.target: HDAC6 (Homo sapiens)
Sequence (Q9UBN7 1-1215): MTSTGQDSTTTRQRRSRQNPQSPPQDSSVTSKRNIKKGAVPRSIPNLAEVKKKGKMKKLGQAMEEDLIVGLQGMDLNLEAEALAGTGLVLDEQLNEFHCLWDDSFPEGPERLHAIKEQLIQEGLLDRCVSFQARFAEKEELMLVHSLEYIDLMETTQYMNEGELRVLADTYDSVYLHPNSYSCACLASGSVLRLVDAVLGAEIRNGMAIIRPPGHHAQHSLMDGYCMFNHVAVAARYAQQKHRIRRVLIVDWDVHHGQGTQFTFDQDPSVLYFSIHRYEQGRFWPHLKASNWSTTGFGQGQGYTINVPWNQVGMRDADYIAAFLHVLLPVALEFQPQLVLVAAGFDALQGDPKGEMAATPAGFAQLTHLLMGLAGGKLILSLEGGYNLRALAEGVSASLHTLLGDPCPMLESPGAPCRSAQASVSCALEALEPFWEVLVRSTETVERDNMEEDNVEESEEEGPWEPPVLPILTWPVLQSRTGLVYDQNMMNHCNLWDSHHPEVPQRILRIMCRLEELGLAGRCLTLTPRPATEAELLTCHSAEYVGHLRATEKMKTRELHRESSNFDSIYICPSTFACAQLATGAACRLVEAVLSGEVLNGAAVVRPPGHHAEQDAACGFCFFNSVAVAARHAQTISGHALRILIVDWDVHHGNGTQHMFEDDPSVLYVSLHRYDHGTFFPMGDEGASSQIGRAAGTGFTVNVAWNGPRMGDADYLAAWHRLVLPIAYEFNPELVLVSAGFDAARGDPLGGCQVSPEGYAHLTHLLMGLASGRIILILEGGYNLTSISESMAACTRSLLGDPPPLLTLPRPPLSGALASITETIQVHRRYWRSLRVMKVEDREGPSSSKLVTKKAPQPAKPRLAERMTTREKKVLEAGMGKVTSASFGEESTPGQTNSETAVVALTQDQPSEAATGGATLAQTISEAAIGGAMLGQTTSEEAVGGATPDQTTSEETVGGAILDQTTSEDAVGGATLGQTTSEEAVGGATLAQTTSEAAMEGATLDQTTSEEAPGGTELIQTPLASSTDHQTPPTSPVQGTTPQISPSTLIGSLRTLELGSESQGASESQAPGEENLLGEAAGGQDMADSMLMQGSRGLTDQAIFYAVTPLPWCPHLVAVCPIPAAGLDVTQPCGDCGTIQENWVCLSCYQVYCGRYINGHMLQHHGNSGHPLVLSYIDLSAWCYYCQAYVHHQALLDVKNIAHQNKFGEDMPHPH
test: Fluorogenic HDAC assay kit (BPS Bioscience), HDAC6 inhibition
Assay type: biochemical
run.conditions: ratio IC50 HDAC1 / IC50 HDAC6
Could you please report measured IC50 0 ratio (1/6) for the items listed next?

Examples with their reported IC50 0 ratio (1/6) follow.
smiles.input	IC50 0 ratio (1/6)
O=C(CCCCCCC(=O)Nc1ccc(C(C(=O)Nc2cccc3cccnc23)C(=O)Nc2cccc3cccnc23)cc1)NO	107
O=C(CCCCCCCC(=O)Nc1ccc(C(C(=O)Nc2cccc3cccnc23)C(=O)Nc2cccc3cccnc23)cc1)NO	25
CC(C)(C)c1ccc(NC(=O)C(CCCCCC(=O)NO)C(=O)Nc2ccc(C(C)(C)C)cc2)cc1	3.1
O=C(CCCCCCNC(=O)c1ccc(C(C(=O)Nc2cccc3cccnc23)C(=O)Nc2cccc3cccnc23)cc1)NO	87
O=C(CCCCCCNC(=O)c1ccc(C(F)(C(=O)Nc2cccc3cccnc23)C(=O)Nc2cccc3cccnc23)cc1)NO	58
O=C(CCCCCC(=O)Nc1ccc(C(C(=O)Nc2cccc3cccnc23)C(=O)Nc2cccc3cccnc23)cc1)NO	51

Would you mind giving IC50 0 ratio (1/6) for every compound in the list below?
1. O=C(CCCCCCC(=O)Nc1ccc(C(C(=O)Nc2ccccc2)C(=O)Nc2ccccc2)cc1)NO
2. CC(C)(C)OC(=O)Nc1ccc(-c2csc(C(=O)NCCCCCCC(=O)NO)c2)cc1
3. CC(C)(C)c1ccc(CNC(=O)CCCCCCCC(=O)NO)cc1

Solution:
1: 42.9; 2: 10.6; 3: 10.3
